molecular target: human TASK-1 (Homo sapiens (Human), UniProt O14649); assay: Inhibition of recombinant TASK-1 in stably transfected CHO cells (voltage-sensitive dye, FLIPR); format: cell-based; settings: depolarization induced by 40 mM potassium chloride, Table 2A
Sequence (O14649 whole entry): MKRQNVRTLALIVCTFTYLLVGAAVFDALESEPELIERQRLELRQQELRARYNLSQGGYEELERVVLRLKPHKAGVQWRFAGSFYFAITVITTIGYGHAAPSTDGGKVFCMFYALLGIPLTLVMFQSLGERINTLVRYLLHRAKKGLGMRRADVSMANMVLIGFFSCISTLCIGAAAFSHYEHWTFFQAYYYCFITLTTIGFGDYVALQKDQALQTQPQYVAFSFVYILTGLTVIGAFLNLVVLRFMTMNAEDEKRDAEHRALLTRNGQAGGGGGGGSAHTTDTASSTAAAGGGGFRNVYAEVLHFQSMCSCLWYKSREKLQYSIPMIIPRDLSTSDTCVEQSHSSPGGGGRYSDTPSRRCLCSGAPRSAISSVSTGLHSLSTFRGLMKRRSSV
Response field label: string, one of class 1 (IC50 strictly below 800 nM) or class 0.

# chemical_structure, assigned_label
data = [
    ("O=C(C1CCCCC1)N1CCN(Cc2c(-c3ccc(F)cc3)nc3ccccn23)CC1", "class 0"),
    ("CC(C)c1ccc(-c2nc3ccccn3c2CN2CCN(C(=O)C3CCCC3)CC2)cc1", "class 1"),
    ("O=C(c1ccccc1F)N1CCN(Cc2c(-c3ccc(Br)cc3)nc3ccccn23)CC1", "class 1"),
    ("O=C(C1CCC1)N1CCN(Cc2c(-c3ccc(Cl)cc3)nc3ccccn23)CC1", "class 1"),
    ("COc1cccc(C(=O)N2CCN(Cc3c(-c4ccc(Br)cc4)nc4ccccn34)CC2)c1", "class 0"),
    ("N#Cc1ccc(-c2nc3ccccn3c2CN2CCN(C(=O)c3ccccc3F)CC2)cc1", "class 0"),
    ("COc1cccc(C(=O)N2CCN(Cc3c(-c4ccc(Br)cc4)nc4ccccn34)CC2)n1", "class 1"),
    ("CC(C)c1ccccc1C(=O)N1CCN(Cc2c(-c3ccc(Cl)cc3)nc3ccccn23)CC1", "class 1"),
    ("O=C(c1cccc(OC(F)(F)F)c1)N1CCN(Cc2c(-c3ccc(Cl)cc3)nc3ccccn23)CC1", "class 0"),
    ("N#Cc1ccc(-c2nc3ccccn3c2CN2CCN(C(=O)C3CCCC3)CC2)cc1", "class 0"),
    ("O=C(C1CCCC1)N1CCN(Cc2c(-c3ccc(Br)cc3)nc3ccccn23)CC1", "class 1"),
    ("COc1ccc(F)cc1C(=O)N1CCN(Cc2c(-c3ccc(Cl)cc3)nc3ccccn23)CC1", "class 1"),
    ("O=C(C1CCC1)N1CCN(Cc2c(-c3ccc(F)cc3)nc3ccccn23)CC1", "class 0"),
    ("O=C(C1CCCC1)N1CCN(Cc2c(-c3ccc(F)cc3)nc3ccccn23)CC1", "class 1"),
    ("COc1ccc(F)c(C(=O)N2CCN(Cc3c(-c4ccc(Cl)cc4)nc4ccccn34)CC2)n1", "class 1"),
    ("CCOc1ccccc1C(=O)N1CCN(Cc2c(-c3ccc(Cl)cc3)nc3ccccn23)CC1", "class 1"),
    ("O=C(c1cccc(OCC(F)(F)F)n1)N1CCN(Cc2c(-c3ccc(Cl)cc3)nc3ccccn23)CC1", "class 0"),
]

###

molecular target: human TASK-1 (Homo sapiens (Human), UniProt O14649); assay: Inhibition of recombinant TASK-1 in stably transfected CHO cells (voltage-sensitive dye, FLIPR); assay type: cell-based; conditions: depolarization induced by 40 mM potassium chloride, Table 2A
Response field label: string, one of True (IC50 strictly below 0.5 µM) or False.

# chemical_structure, assigned_label
records = [
    ("CCOc1cccc(C(=O)N2CCN(Cc3c(-c4ccc(Cl)cc4)nc4ccccn34)CC2)n1", "False"),
    ("COc1ccc(C)c(C(=O)N2CCN(Cc3c(-c4ccc(Br)cc4)nc4ccccn34)CC2)n1", "True"),
    ("COc1cccc(C(=O)N2CCN(Cc3c(-c4ccc(C#N)cc4)nc4ccccn34)CC2)n1", "False"),
    ("COc1ccc(Cl)c(C(=O)N2CCN(Cc3c(-c4ccc(Cl)cc4)nc4ccccn34)CC2)c1", "False"),
    ("CC(C)(C)c1ccc(-c2nc3ccccn3c2CN2CCN(C(=O)C3CCCC3)CC2)cc1", "False"),
    ("O=C(C1CCC1)N1CCN(Cc2c(-c3ccc(Br)cc3)nc3ccccn23)CC1", "True"),
    ("O=C(c1ccccn1)N1CCN(Cc2c(-c3ccc(Cl)cc3)nc3ccccn23)CC1", "False"),
    ("O=C(C1CCCC1)N1CCN(Cc2c(-c3ccc(Cl)cc3)nc3ccccn23)CC1", "True"),
    ("CC(C)(C)c1ccc(-c2nc3ccccn3c2CN2CCN(C(=O)c3ccccc3F)CC2)cc1", "False"),
    ("O=C(c1ccccc1F)N1CCN(Cc2c(-c3ccc(C4CC4)cc3)nc3ccccn23)CC1", "True"),
    ("O=C(c1cccc(OC2CCOCC2)n1)N1CCN(Cc2c(-c3ccc(Cl)cc3)nc3ccccn23)CC1", "False"),
    ("O=C(c1ccccc1F)N1CCN(Cc2c(-c3ccc(Cl)cc3)nc3ccccn23)CC1", "True"),
    ("CC(C)Oc1cccc(C(=O)N2CCN(Cc3c(-c4ccc(Cl)cc4)nc4ccccn34)CC2)c1", "False"),
    ("Cc1ccc(-c2nc3ccccn3c2CN2CCN(C(=O)C3CCCCC3)CC2)cc1", "False"),
    ("O=C(c1cccc(OC2CCC2)n1)N1CCN(Cc2c(-c3ccc(Cl)cc3)nc3ccccn23)CC1", "False"),
    ("CC(C)c1ccc(-c2nc3ccccn3c2CN2CCN(C(=O)c3ccccc3F)CC2)cc1", "False"),
    ("O=C(c1cc(F)ccc1Cl)N1CCN(Cc2c(-c3ccc(F)cc3)nc3ccccn23)CC1", "False"),
    ("COc1ccc(F)c(C(=O)N2CCN(Cc3c(-c4ccc(C#N)cc4)nc4ccccn34)CC2)c1", "False"),
    ("O=C(c1ccccc1Cl)N1CCN(Cc2c(-c3ccc(Cl)cc3)nc3ccccn23)CC1", "True"),
    ("Cc1ccccc1C(=O)N1CCN(Cc2c(-c3ccc(Cl)cc3)nc3ccccn23)CC1", "True"),
    ("Cc1ccc(F)cc1C(=O)N1CCN(Cc2c(-c3ccc(Cl)cc3)nc3ccccn23)CC1", "False"),
    ("COc1cccc(C(=O)N2CCN(Cc3c(-c4ccc(Cl)cc4)nc4ccccn34)CC2)c1", "False"),
    ("Cc1ccc(F)cc1C(=O)N1CCN(Cc2c(-c3ccc(Br)cc3)nc3ccccn23)CC1", "False"),
    ("O=C(C1CCCCC1)N1CCN(Cc2c(-c3ccc(Br)cc3)nc3ccccn23)CC1", "True"),
    ("COc1ccccc1C(=O)N1CCN(Cc2c(-c3ccc(Cl)cc3)nc3ccccn23)CC1", "True"),
    ("O=C(C1CCCCC1)N1CCN(Cc2c(-c3ccc(Cl)cc3)nc3ccccn23)CC1", "False"),
    ("O=C(c1cccc(OC(F)F)n1)N1CCN(Cc2c(-c3ccc(Cl)cc3)nc3ccccn23)CC1", "True"),
]

###

molecular target: human TASK-1 (Homo sapiens (Human), UniProt O14649); assay: Two-electrode voltage clamp analysis of human TASK-1 channels in Xenopus laevis oocytes; assay type: cell-based; settings: 10 μM; oocytes, voltage clamp; Table 1B

# compound, experimental_system, inhibition at 10 µM
records = [
    ("O=C(c1cccc(F)c1)N1CCN(Cc2c(-c3ccc(Cl)cc3)nc3ccc(C4CC4)cn23)CC1 [drawing 123]", "human TASK-1 (Homo sapiens (Human), UniProt O14649)", "59.9%"),
    ("COc1cccc(-c2nc3ccccn3c2CN2CCN(C(=O)C3CCC3)CC2)c1 [drawing 125]", "human TASK-1 (Homo sapiens (Human), UniProt O14649)", "75%"),
    ("O=C(c1ccccc1Cl)N1CCN(Cc2c(-c3ccc(Cl)cc3)nc3ccc(-c4ccccc4)cn23)CC1 [drawing 122]", "human TASK-1 (Homo sapiens (Human), UniProt O14649)", "16.9%"),
    ("O=C(c1ccncc1)N1CCN(Cc2c(-c3ccc(Cl)cc3)nc3ccc(C4CC4)cn23)CC1 [drawing 124]", "human TASK-1 (Homo sapiens (Human), UniProt O14649)", "49.9%"),
    ("O=C(c1cnccn1)N1CCN(Cc2c(-c3ccc(Cl)cc3)nc3ccc(C4CC4)cn23)CC1 [drawing 126]", "human TASK-1 (Homo sapiens (Human), UniProt O14649)", "55.2%"),
]

###

biological target: human TASK-1 (Homo sapiens (Human)); assay: Inhibition of recombinant TASK-1 in stably transfected CHO cells (voltage-sensitive dye, FLIPR); assay type: cell-based; conditions: depolarization induced by 40 mM potassium chloride, Table 2A
Catalogue of molecules with associated IC50
observed_property: IC50 (nM)

# chemical_structure, unit_abbreviation, data_value
rows = [
    ("O=C(c1cccc(C(F)(F)F)c1)N1CCN(Cc2c(-c3ccc(Cl)cc3)nc3ccccn23)CC1", "nM", 1900),
    ("COc1ccc(F)cc1C(=O)N1CCN(Cc2c(-c3ccc(F)cc3)nc3ccccn23)CC1", "nM", 1620),
    ("COc1ccccc1C(=O)N1CCN(Cc2c(-c3ccc(F)cc3)nc3ccccn23)CC1", "nM", 1160),
    ("N#Cc1ccccc1C(=O)N1CCN(Cc2c(-c3ccc(Cl)cc3)nc3ccccn23)CC1", "nM", 430),
    ("CC(C)Oc1cccc(C(=O)N2CCN(Cc3c(-c4ccc(Cl)cc4)nc4ccccn34)CC2)n1", "nM", 440),
    ("COc1ccc(C)c(C(=O)N2CCN(Cc3c(-c4ccc(C#N)cc4)nc4ccccn34)CC2)n1", "nM", 230),
    ("COc1ccc(F)c(C(=O)N2CCN(Cc3c(-c4ccc(Cl)cc4)nc4ccccn34)CC2)c1", "nM", 590),
    ("O=C(c1cc(F)ccc1Cl)N1CCN(Cc2c(-c3ccc(Cl)cc3)nc3ccccn23)CC1", "nM", 304),
]
